# tested-target: hMPV B2 F protein (his-tagged, not trypsin treated) (human metapneumovirus)
# method: ELISA on coated recombinant protein, OD 405 nm
Each entry below lists one item and its recorded EC50 value.

# binder, unit-text, EC50
rows = [
    ("MPV477 (antibody, V domains shown) VH: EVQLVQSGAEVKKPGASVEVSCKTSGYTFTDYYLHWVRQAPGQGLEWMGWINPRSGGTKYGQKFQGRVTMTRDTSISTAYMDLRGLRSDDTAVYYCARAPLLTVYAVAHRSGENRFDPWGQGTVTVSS VL: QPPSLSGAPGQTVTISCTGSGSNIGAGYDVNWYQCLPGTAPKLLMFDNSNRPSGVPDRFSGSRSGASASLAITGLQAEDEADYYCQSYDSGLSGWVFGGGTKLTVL", "µg/mL", 0.063),
    ("MPV478 (antibody, V domains shown) VH: EVQLVQSGAEVKKPGASVKVSCNASGYTFTGYYIHWVRQAPGQGLEWMGWINPRSGGTNYAQKFQGRVTLTRDTSITTAYMDVTRLRPDDTAVYYCATTREGIVLMPRGRGDDALDTWGQGTTVIVSS VL: DIVMTQSPVSLTVSLGERATINCKSSQSVLSTSNNENYLAWYQQKPGQPPNLLIYWASTRESGVPDRFSGSGSGTDFTLTISSLQAEDVAVYYCQQYFATPITFGPGTKVDVK", "µg/mL", 0.027),
]

Data provenance is patent US20250188153A1.
